Where do these numbers come from? They come from patent US20140243286A1.

molecular target: BRD2 (Homo sapiens); experiment: Fluorescence anisotropy (FA) binding assay, BRD2; conditions: BRD2; protein 125 nM; read-out: IC50 range (FA assay) BRD2, BRD-N monomers
pIC50: −log10 of the molar value.
reported endpoint: pIC50

CCNC(=O)C[C@@H]1N=C(c2ccc(Cl)cc2)c2cc(OCCCC(=O)Nc3cccc(O)c3O)ccc2-n2c(C)nnc21	4.52 to 6.00
COc1ccc2c(c1)C(c1ccc(Cl)cc1)=N[C@@H](CC(=O)NCCc1ccc(O)c(O)c1)c1nnc(C)n1-2	6.00 to 7.30
CCNC(=O)C[C@@H]1N=C(c2ccc(Cl)cc2)c2cc(OCCCCC(=O)Nc3ccc(O)c(O)c3)ccc2-n2c(C)nnc21	6.00 to 7.30
CCNC(=O)C[C@@H]1N=C(c2ccc(Cl)cc2)c2cc(OCC(=O)Nc3cccc(O)c3O)ccc2-n2c(C)nnc21	6.00 to 7.30
COc1ccc2c(c1)C(c1ccc(Cl)cc1)=N[C@@H](CC(=O)NCc1cccc(O)c1O)c1nnc(C)n1-2	6.00 to 7.30

Entry CCNC(=O)C[C@@H]1N=C(c2ccc(Cl)cc2)c2cc(OCCCCNC(=O)c3cccc(O)c3O)ccc2-n2c(C)nnc21 — recorded pIC50 = 6.00 to 7.30

For this compound ( CCNC(=O)C[C@@H]1N=C(c2ccc(Cl)cc2)c2cc(OCCNC(=O)c3cccc(O)c3O)ccc2-n2c(C)nnc21 ), measured pIC50 is 4.52 to 6.00

The compound CCNC(=O)C[C@@H]1N=C(c2ccc(Cl)cc2)c2cc(OCCCCNC(=O)c3ccc(O)c(O)c3)ccc2-n2c(C)nnc21 showed pIC50 equal to 4.52 to 6.00

// pIC50 value for COc1ccc2c(c1)C(c1ccc(Cl)cc1)=N[C@@H](CC(=O)NCCCCCNC(=O)c1cccc(O)c1O)c1nnc(C)n1-2 : 6.00 to 7.30

# compound COc1ccc2c(c1)C(c1ccc(Cl)cc1)=N[C@@H](CC(=O)NCCNC(=O)Cc1ccc(O)c(O)c1)c1nnc(C)n1-2 ; its pIC50 = 6.00 to 7.30

Query COc1ccc2c(c1)C(c1ccc(Cl)cc1)=N[C@@H](CC(=O)NCCCNC(=O)c1ccc(O)c(O)c1)c1nnc(C)n1-2 yields pIC50 of 6.00 to 7.30

Reported pIC50 ( CCNC(=O)C[C@@H]1N=C(c2ccc(Cl)cc2)c2cc(OCC(=O)Nc3ccc(O)c(O)c3)ccc2-n2c(C)nnc21 ) = 6.00 to 7.30

The reported pIC50 of the compound CCNC(=O)C[C@@H]1N=C(c2ccc(Cl)cc2)c2cc(OCCCC(=O)Nc3ccc(O)c(O)c3)ccc2-n2c(C)nnc21 was 6.00 to 7.30

Note to self: pIC50 recorded for CCNC(=O)C[C@@H]1N=C(c2ccc(Cl)cc2)c2cc(OCCCNC(=O)c3ccc(O)c(O)c3)ccc2-n2c(C)nnc21 was 4.52 to 6.00

// pIC50 lookup, compound = COc1ccc2c(c1)C(c1ccc(Cl)cc1)=N[C@@H](CC(=O)NCc1ccc(O)c(O)c1)c1nnc(C)n1-2 , result: 6.00 to 7.30

Per the record, COc1ccc2c(c1)C(c1ccc(Cl)cc1)=N[C@@H](CC(=O)NCCNC(=O)c1cccc(O)c1O)c1nnc(C)n1-2 has pIC50 of 6.00 to 7.30

pIC50 reading for CCNC(=O)C[C@@H]1N=C(c2ccc(Cl)cc2)c2cc(OCCNC(=O)c3ccc(O)c(O)c3)ccc2-n2c(C)nnc21 : 6.00 to 7.30

* * *

target: BRD4 (Homo sapiens); experiment: Fluorescence anisotropy (FA) binding assay, BRD4; settings: BRD4; protein 125 nM; read-out: IC50 range (FA assay) BRD4, BRD-E monomers
pIC50: −log10 of the molar value.
Measured pIC50, listed per entry for reference.

CCNC(=O)C[C@@H]1N=C(c2ccc(Cl)cc2)c2cc(OCCNC(=O)c3ccc(B(O)O)cc3)ccc2-n2c(C)nnc21	6.00 to 7.30
COc1ccc2c(c1)C(c1ccc(Cl)cc1)=N[C@@H](CC(=O)NCCc1ccc(B(O)O)cc1)c1nnc(C)n1-2	6.00 to 7.30
COc1ccc2c(c1)C(c1ccc(Cl)cc1)=N[C@@H](CC(=O)NCCNC(=O)/C=C/c1ccc(B(O)O)cc1)c1nnc(C)n1-2	6.00 to 7.30
CCNC(=O)C[C@@H]1N=C(c2ccc(Cl)cc2)c2cc(OCC(=O)Nc3ccc(B(O)O)cc3)ccc2-n2c(C)nnc21	6.00 to 7.30
COc1ccc2c(c1)C(c1ccc(Cl)cc1)=N[C@@H](CC(=O)NCCCCNC(=O)c1ccc(B(O)O)cc1)c1nnc(C)n1-2	6.00 to 7.30
COc1ccc2c(c1)C(c1ccc(Cl)cc1)=N[C@@H](CC(=O)NCCNC(=O)Cc1cccc(B(O)O)c1)c1nnc(C)n1-2	6.00 to 7.30

Notebook: CCNC(=O)C[C@@H]1N=C(c2ccc(Cl)cc2)c2cc(OCCCCC(=O)Nc3cccc(B(O)O)c3)ccc2-n2c(C)nnc21 , pIC50 read as 6.00 to 7.30

Short answer for COc1ccc2c(c1)C(c1ccc(Cl)cc1)=N[C@@H](CC(=O)NCCNC(=O)c1cccc(-c3cccc(B(O)O)c3)c1)c1nnc(C)n1-2 : pIC50 was 6.00 to 7.30

For COc1ccc2c(c1)C(c1ccc(Cl)cc1)=N[C@@H](CC(=O)NCCCNC(=O)c1cccc(B(O)O)c1)c1nnc(C)n1-2 the compound record lists pIC50 as 6.00 to 7.30

Per the records, this compound ( CCNC(=O)C[C@@H]1N=C(c2ccc(Cl)cc2)c2cc(OCCCCNC(=O)c3cccc(B(O)O)c3)ccc2-n2c(C)nnc21 ) has pIC50 equal to 4.52 to 6.00

Note to self: pIC50 recorded for COc1ccc2c(c1)C(c1ccc(Cl)cc1)=N[C@@H](CC(=O)NCCCCNC(=O)c1cccc(B(O)O)c1)c1nnc(C)n1-2 was 6.00 to 7.30

# pIC50 (compound: COc1ccc2c(c1)C(c1ccc(Cl)cc1)=N[C@@H](CC(=O)NCCCCCNC(=O)c1cccc(B(O)O)c1)c1nnc(C)n1-2 ) is 6.00 to 7.30

Lab note: measured pIC50 of CCNC(=O)C[C@@H]1N=C(c2ccc(Cl)cc2)c2cc(OCCCNC(=O)c3cccc(B(O)O)c3)ccc2-n2c(C)nnc21 was 4.52 to 6.00

* * *

target: BRD2 (Homo sapiens, UniProt P25440); test: Fluorescence anisotropy (FA) binding assay, BRD2; details: BRD2; protein 125 nM; read-out: IC50 range (FA assay) BRD2, BRD-E monomers
Sequence (P25440 whole entry): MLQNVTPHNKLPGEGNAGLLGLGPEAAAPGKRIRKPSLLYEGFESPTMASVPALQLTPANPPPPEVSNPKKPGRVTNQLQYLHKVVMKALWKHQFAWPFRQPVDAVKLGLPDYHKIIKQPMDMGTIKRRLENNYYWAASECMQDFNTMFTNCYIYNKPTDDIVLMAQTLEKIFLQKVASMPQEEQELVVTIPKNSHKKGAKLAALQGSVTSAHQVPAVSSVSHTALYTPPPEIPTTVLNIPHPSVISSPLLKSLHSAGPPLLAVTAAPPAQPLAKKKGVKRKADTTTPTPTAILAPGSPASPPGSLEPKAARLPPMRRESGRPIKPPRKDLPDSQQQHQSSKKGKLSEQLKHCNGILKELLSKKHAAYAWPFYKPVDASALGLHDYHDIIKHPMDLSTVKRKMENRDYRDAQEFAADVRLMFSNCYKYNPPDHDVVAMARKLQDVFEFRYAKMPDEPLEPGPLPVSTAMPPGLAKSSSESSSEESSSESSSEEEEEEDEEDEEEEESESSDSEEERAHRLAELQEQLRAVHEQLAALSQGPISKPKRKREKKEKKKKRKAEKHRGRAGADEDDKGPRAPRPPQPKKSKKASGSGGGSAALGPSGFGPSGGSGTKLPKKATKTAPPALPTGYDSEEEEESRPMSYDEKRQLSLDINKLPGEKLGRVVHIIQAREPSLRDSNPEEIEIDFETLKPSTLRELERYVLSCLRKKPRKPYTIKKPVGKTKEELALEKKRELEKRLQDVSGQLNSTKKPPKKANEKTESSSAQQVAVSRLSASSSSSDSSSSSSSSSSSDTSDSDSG
// IC50 lookup, one value per entry

Some entries whose results are on file:
CCNC(=O)C[C@@H]1N=C(c2ccc(Cl)cc2)c2cc(OCC(=O)Nc3cccc(B(O)O)c3)ccc2-n2c(C)nnc21	1000 to 30000 nM
COc1ccc2c(c1)C(c1ccc(Cl)cc1)=N[C@@H](CC(=O)NCCCNC(=O)c1ccc(B(O)O)cc1)c1nnc(C)n1-2	50 to 1000 nM
COc1ccc2c(c1)C(c1ccc(Cl)cc1)=N[C@@H](CC(=O)NCCNC(=O)c1cccc(-c3cccc(B(O)O)c3)c1)c1nnc(C)n1-2	50 to 1000 nM

Kindly note: BRD2 (Homo sapiens, UniProt P25440), CCNC(=O)C[C@@H]1N=C(c2ccc(Cl)cc2)c2cc(OCCNC(=O)c3ccc(B(O)O)cc3)ccc2-n2c(C)nnc21 , IC50 value reported: 50 to 1000 nM

Entry COc1ccc2c(c1)C(c1ccc(Cl)cc1)=N[C@@H](CC(=O)NCCCNC(=O)c1cccc(B(O)O)c1)c1nnc(C)n1-2 under BRD2 (Homo sapiens, UniProt P25440) had IC50 of 50 to 1000 nM

Assay BRD2 (Homo sapiens, UniProt P25440), sample CCNC(=O)C[C@@H]1N=C(c2ccc(Cl)cc2)c2cc(OCCCCC(=O)Nc3cccc(B(O)O)c3)ccc2-n2c(C)nnc21 , IC50 read: 50 to 1000 nM

Record CCNC(=O)C[C@@H]1N=C(c2ccc(Cl)cc2)c2cc(OCCCNC(=O)c3ccc(B(O)O)cc3)ccc2-n2c(C)nnc21 ; system BRD2 (Homo sapiens, UniProt P25440); IC50 = 1000 to 30000 nM

BRD2 (Homo sapiens, UniProt P25440) data for COc1ccc2c(c1)C(c1ccc(Cl)cc1)=N[C@@H](CC(=O)NCCCCNC(=O)c1cccc(B(O)O)c1)c1nnc(C)n1-2 ; its IC50: 50 to 1000 nM

// molecule CCNC(=O)C[C@@H]1N=C(c2ccc(Cl)cc2)c2cc(OCC(=O)Nc3ccc(B(O)O)cc3)ccc2-n2c(C)nnc21 , assay BRD2 (Homo sapiens, UniProt P25440), IC50 value: 1000 to 30000 nM

IC50 on BRD2 (Homo sapiens, UniProt P25440) for CCNC(=O)C[C@@H]1N=C(c2ccc(Cl)cc2)c2cc(OCCCNC(=O)c3cccc(B(O)O)c3)ccc2-n2c(C)nnc21 is 1000 to 30000 nM

Bench note, BRD2 (Homo sapiens, UniProt P25440): entry COc1ccc2c(c1)C(c1ccc(Cl)cc1)=N[C@@H](CC(=O)NCCNC(=O)Cc1ccc(B(O)O)cc1)c1nnc(C)n1-2 , its IC50 = 1000 to 30000 nM

Tested on BRD2 (Homo sapiens, UniProt P25440): CCNC(=O)C[C@@H]1N=C(c2ccc(Cl)cc2)c2cc(OCCCCNC(=O)c3ccc(B(O)O)cc3)ccc2-n2c(C)nnc21 . Observed IC50: 50 to 1000 nM

The recorded IC50 with BRD2 (Homo sapiens, UniProt P25440) for COc1ccc2c(c1)C(c1ccc(Cl)cc1)=N[C@@H](CC(=O)NCCCCCNC(=O)c1cccc(B(O)O)c1)c1nnc(C)n1-2 was 50 to 1000 nM

Result for COc1ccc2c(c1)C(c1ccc(Cl)cc1)=N[C@@H](CC(=O)NCc1ccc(B(O)O)cc1)c1nnc(C)n1-2 , tested on BRD2 (Homo sapiens, UniProt P25440), IC50: 50 to 1000 nM

Bench note, BRD2 (Homo sapiens, UniProt P25440): entry CCNC(=O)C[C@@H]1N=C(c2ccc(Cl)cc2)c2cc(OCCNC(=O)c3cccc(B(O)O)c3)ccc2-n2c(C)nnc21 , its IC50 = 50 to 1000 nM
